assay: amyloid nucleation score (Sup35N fusion, yeast selection) (log enrichment); library NNK3; higher = more nucleation; inactive = no reads after selection;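 further: zero at mode of non-aggregating sequences after 7 days selection at 30°C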
MEASURED ENDPOINT: amyloid nucleation score

Here's what some known entries look like.
FEFYTMWSIWARVLFPLKIY	inactive
MPFGYICWIGVCFSHD	1.96
CLIYTTVFHSAG	0.708
MRWVHSHANHPLHA	inactive
DWNISLNLQDIGRRSLPIFA	inactive

Challenge: Can you share its amyloid nucleation score? I mean this substance: `SLDLNCQIMLYKSMRCDEE`
Response given: 1.61

Challenge: What do we get for `YSSSFIWMAYESIYFFLIFI` ?
Response given: inactive

Challenge: Entry `VSMRSTYTFG` please
Response given: 0.597

Challenge: Lookup `SVRYTV`
Response given: inactive

Challenge: What would you report for `AFNVIRYVVWFSMVRASNAS` ?
Response given: inactive
